Test system: MS2 coat protein
ASSAY PROTOCOL: apparent KD of MS2 coat protein; designed switch direction (-1 OFF switch, 1 ON switch): 1; higher = weaker reporter binding
SETTINGS: Eterna round: R95; input ligand: FMN 200 uM
Returns one of Criterion met or Criterion not met; Criterion met when apparent KD of MS2 coat protein is >= 100 nM.

Request: Has UUGCAGUCAGGUGAGGAUAUCAUGAGUUUAACAUGAGGAUCACCCAUGUGCUGCCUUGCAGCAUAUGAGAAGGCACCUGGCUGCU [JL-ss2-3.03 Brourd Mod] (puzzle: Same State 2) a recorded apparent KD of MS2 coat protein greater than or equal to 100 nM?
Result: Criterion met

Request: Has AAGUUACUAUCUCAGGAUAUCAUGUCAAAGACAUGAGGAUCACCCAUGUACCAGGAAACUGGUUAUGAGAAGGGAGAUAGUAACG [Mat - Same State 2 - Mod - D53] (puzzle: Same State 2) a recorded apparent KD of MS2 coat protein greater than or equal to 100 nM?
Result: Criterion met

Request: Has AUAAAACAUGAGGAUCACCCAUGUAAUCGCCAGACAGGAUAUAUAGUGGCAUUUGCAGGGAUAGAAGGGUCGUGGC [Lerainxege] (puzzle: Same State 1) a recorded apparent KD of MS2 coat protein greater than or equal to 100 nM?
Result: Criterion not met

Request: Has AUAAAACAUGAGGAUCACCCAUGUCAACAAAGUUGAGGAUAUGGGCAAAUAAAAUAAGAACCAGAAGGCGAAUAAU [salish99_ss1_r3_033] (puzzle: Same State 1) a recorded apparent KD of MS2 coat protein greater than or equal to 100 nM?
Result: Criterion met

Request: Has AGUCCAGCCUGAGCUGGACAAAAGCAUGUACAUGAGGAUCACCCAUGUUCAUGUACAAGCUUUUUGCUCGUCAAAAG [Mat - hsa-mir-208a - Mod of JL - 67] (puzzle: Sensor for hsa-mir-208a) a recorded apparent KD of MS2 coat protein greater than or equal to 100 nM?
Result: Criterion met

Request: Has AGUCCAGCGAAAGCUGGACAAAAGUAUGUACAUGAGGAUCACCCAUGUUCAUGUACAAGCUUUUUGCUCGUCUUAAA [JL mod - D95 - 10] (puzzle: Sensor for hsa-mir-208a) a recorded apparent KD of MS2 coat protein greater than or equal to 100 nM?
Result: Criterion met

Request: Has UAGAGAGGAAGCGAGGAUAUCGUGUUAGGUACAUGAGGAUCACCCAUGUUUUAGGUAGAGGUAGGCGAGAAGGCGCAGGAGAGGA [JR_SS2_Sub091] (puzzle: Same State 2) a recorded apparent KD of MS2 coat protein greater than or equal to 100 nM?
Result: Criterion not met

Request: Has CAGCGCUGUUGAGAGGAUAUGCGGUGAUGGACAUGAGGAUCACCCAUGUUAGCGACAGCAUUACGGUAGAAGGCUUCACAGCUGC [Soteed Omei mod 16] (puzzle: Same State 2) a recorded apparent KD of MS2 coat protein greater than or equal to 100 nM?
Result: Criterion not met
